Ref: PubChem BioAssay

Test: adipocyte viability effects, profiling panel, cell-based, 3T3-L1 adipocytes, calcein-AM fluorescence, 48 h, basal (AID 1163); note: test concentration not given here
Conditions: 3T3-L1 adipocytes viability, higher = more signal
Please assign criterion not met whenever z-score is at or above -0.1, and criterion met whenever it is below.

# compound, group
records = [
    ("C[C@H]1CC[C@H]2C(=O)OC(CO)CN2[C@@H]1c1ccc(Br)cc1 (some centres not stated)", "criterion not met"),
    ("CO[C@@H]1COC(=O)[C@@H]2CCCN2C(=O)[C@@H](C)COC(=O)CC=C[C@H]1C", "criterion met"),
    ("CCOC(=O)[C@H](Cc1ccccc1)NC(=O)CCC1CC(OC(=O)NCCc2ccc(F)cc2)CC2(CCCC(COC(=O)NCC3CCCCC3)O2)O1 (some centres not stated)", "criterion met"),
]

Answer whether the compound CC(C)=CCCC(C)=CCON=C1C[C@@H](O)[C@@H](O)[C@@H]2[C@@H]3C(=O)N(C(C)(C)C)C(=O)[C@@H]3CC[C@@H]12 has z-score strictly less than -0.1
criterion not met

Answer whether the compound CCCNC(=O)OC[C@H]1O[C@H](CCON=C(C)CCN2CCCc3nc(C)c(C)cc32)C=C[C@@H]1Oc1ccc(OC)cc1 has z-score strictly less than -0.1
criterion not met

Answer whether the compound C[C@H]1COC(=O)[C@@H]2CCCN2C(=O)[C@@H](C)COC(=O)[C@H](Cc2ccccc2)NC1=O has z-score strictly less than -0.1
criterion met

Answer whether the compound COc1ccc(COC(=O)NN=C2C[C@@H](O)[C@@H](O)[C@@H]3[C@@H]4C(=O)N(C5CCCCC5)C(=O)[C@@H]4CC[C@H]23)cc1 has z-score strictly less than -0.1
criterion met

###

Assay: small-molecule binders of probe aNOTCH3, primary screen, biochemical, small-molecule microarray, 635/667 nm fluorescence (AID 1120);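 note: probe is a biotin-tagged antibody raised against NOTCH3 rather than NOTCH3 protein; score merges spot fluorescence near 667 nm with spot signal to noise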
Settings: higher = more signal
reported_endpoint: composite z-score
Please respond with just the number, no unit label.

Would you please look over these solved cases?
# compound, reported_endpoint, endpoint_result
rows = [
    ("O=C1[C@H]2[C@H]3[C@H](O)[C@H](O)CC(=NO[C@@H]4O[C@H](CO)[C@@H](O)[C@H](O)[C@H]4O)[C@H]3CC[C@H]2C(=O)N1c1cccc(Oc2ccccc2)c1", "composite z-score", -0.118),
    ("Cc1ccc(S(=O)(=O)N[C@H]2COC(=O)CC=C[C@@H](C)COC(=O)CC=C[C@@H]2C)cc1", "composite z-score", -0.163),
    ("CCOC(=O)NN=C1C[C@@H](O)[C@@H](O)[C@@H]2[C@@H]3C(=O)N(c4cccc(Oc5ccccc5)c4)C(=O)[C@@H]3CC[C@H]12", "composite z-score", 0.0462),
    ("CO[C@H]1COC(=O)CCC[C@@H](C)[C@H](OC)COC(=O)[C@@H]2CCCN2C(=O)CC=C[C@@H]1C", "composite z-score", -0.0074),
]

In one line, give reported composite z-score of the entry CCCNC(=O)OC[C@H]1O[C@H](CCON=C(C)CCC(=O)OC[C@H]2O[C@H](c3ccccc3)C=C[C@@H]2Oc2ccc(OC)cc2)C=C[C@@H]1Oc1ccc(OC)cc1 .
-0.0762

In one line, give reported composite z-score of the entry CCCNC(=O)OC[C@H]1O[C@H](CCON=Cc2ccc(C(=O)N3[C@H](c4ccc(C)cc4)[C@@H](C)CC[C@H]3C(=O)OC)cc2)C=C[C@@H]1Oc1ccc(OC)cc1 .
-0.321

In one line, give reported composite z-score of the entry CC[C@@H](c1ccccc1)n1c(=O)n2n(c1=O)[C@H]1[C@H](O)[C@@H]3O[C@@H]3C(=NOC[C@@H](O)COCc3ccco3)[C@H]1CC2 .
-0.232

In one line, give reported composite z-score of the entry CCOC(=O)[C@H](CC(C)C)NC(=O)CCC1CC(OC(=O)NCc2cccc3ccccc23)CC2(CCCC(COC(=O)NCCCN3CCCC3=O)O2)O1 (some centres undefined) .
-0.0328

In one line, give reported composite z-score of the entry CO[C@H]1COC(=O)CC=C[C@H](C)COC(=O)[C@@H](C)NC(=O)CC=C[C@@H]1C .
-0.179

In one line, give reported composite z-score of the entry COC(=O)CC=C[C@@H](C)[C@@H](C=NO[C@H](C)c1cn([C@H](CO)Cc2ccccc2)nn1)NS(=O)(=O)c1ccc(C)cc1 .
0.0242

In one line, give reported composite z-score of the entry CO[C@@H]1COC(=O)CC=C[C@H](C)[C@H](OC)COC(=O)[C@H](C)NC(=O)CC=C[C@H]1C .
-0.0043

In one line, give reported composite z-score of the entry O=C1C[C@@H](O)[C@@H](O)[C@@H]2[C@@H]3C(=O)N(c4cccc(Oc5ccccc5)c4)C(=O)[C@@H]3CC[C@H]12 .
-0.085

In one line, give reported composite z-score of the entry CO[C@H]1COC(=O)[C@H](C)NC(=O)[C@@H](C)COC(=O)[C@H]2CCCN2C(=O)CC=C[C@H]1C .
-0.178

In one line, give reported composite z-score of the entry C=CC[C@@H]1C=C[C@H](ON=C2[C@H]3CCn4c(=O)n(-c5ccccc5)c(=O)n4[C@H]3[C@H](O)[C@@H]3O[C@H]23)[C@@H](CO)O1 .
-0.172

In one line, give reported composite z-score of the entry C#CCCCON=C1C[C@@H](O)[C@@H](O)[C@@H]2[C@@H]3C(=O)N(c4ccc(F)cc4F)C(=O)[C@@H]3CC[C@H]12 .
-0.122

In one line, give reported composite z-score of the entry CCCNC(=O)OC[C@H]1O[C@H](CCON=C(C)C)C=C[C@@H]1Oc1ccc(OC)cc1 .
0.154

In one line, give reported composite z-score of the entry CCCCC#C[C@@H]1C=C[C@H](OC(C)=O)[C@@H](COC(C)=O)O1 .
0.0758

In one line, give reported composite z-score of the entry CO[C@@H]1C=CCC(=O)N[C@@H](C)C(=O)OC[C@@H](OC)[C@H](C)CCCC(=O)OC[C@H]1C .
0.0854

In one line, give reported composite z-score of the entry CO[C@H]1COC(=O)[C@@H](C)COC(=O)[C@H](C)NC(=O)CC=C[C@H]1C .
-0.038
